tested on: Listeria innocua; test: Antibacterial activity against Listeria innocua incubated for 16 to 18 hrs by broth microdilution method; format: functional
Where a SMILES comes first, the peptide text is derived from it. Bridges are numbered along the chain shown (N, C = ends). [ ]: non-standard residue; d: D form. The star is where a group is joined. Pro(4R-Me) = C[C@H]1CN[C@H](C(=O)O)C1; Bta = N[C@@H](Cc1csc2ccccc12)C(=O)O; Heptenoyl(2E) = CCCC/C=C/C(=O)*; Pip = O=C(O)[C@@H]1CCCCN1; Abu = CC[C@H](N)C(=O)O
Entries annotated with measured MIC
measurement name: MIC (µg/mL)

[[record]]
compound = "CN[C@@H](CC(C)C)C(=O)N[C@H]1C(=O)N[C@@H](CC(N)=O)C(=O)N[C@H]2C(=O)N[C@H]3C(=O)N[C@H](C(=O)N[C@@H](C(=O)O)c4cc(O)cc(O)c4-c4cc3ccc4O)[C@H](O)c3ccc(c(Cl)c3)Oc3cc2cc(c3O[C@H]2O[C@@H](CO)[C@H](O)[C@@H](O)[C@@H]2O[C@@H]2C[C@@](C)(N)[C@@H](O)[C@@H](C)O2)Oc2ccc(cc2Cl)[C@H]1O"
measurement_name = "MIC"
endpoint_result = 1

[[record]]
compound = "CCCC/C=C/C(=O)N[C@@H](Cc1csc2ccccc12)C(=O)N[C@H]1COC(=O)[C@@H]2C[C@@H](C)CN2C(=O)[C@H](CC)NC(=O)[C@@H]2CCCCN2C(=O)[C@@H]2CCCN2C1=O ({Heptenoyl(2E)}-[Bta]SP[Pip][Abu][Pro(4R-Me)]; ester 2-C)"
measurement_name = "MIC"
endpoint_result = 0.125

